# Experiment: Ataluren glucuronidation kinetics, human intestinal microsomes
# Assay type: in vitro ADME
# Protocol Conditions: human, pooled human intestinal microsomes incubation mixture, pH 7.5, HIM, 0% BSA, mean ± SD, n = 3; read-out: fu,inc
Reported Metric: fraction unbound at 15 min

1) O=C(O)c1cccc(-c2noc(-c3ccccc3F)n2)c1 : 1

====

# Experiment: Ataluren glucuronidation kinetics, human kidney microsomes
# Assay type: in vitro ADME
# Protocol Conditions: human, pooled human kidney microsomes, pH 7.5, HKM, 2% BSA; read-out: CLint,u,UGT
Reported Metric: microsomal CLint (µL/min/mg)

1) O=C(O)c1cccc(-c2noc(-c3ccccc3F)n2)c1 : 1290
